Target: UL97 A594T (Human cytomegalovirus, UniProt Q68101, A594T)
Construct: PCR reaction to generate the full length UL97; honey bee melittin secretion signal (N)
Sequence (Q68101 1-707 A594T): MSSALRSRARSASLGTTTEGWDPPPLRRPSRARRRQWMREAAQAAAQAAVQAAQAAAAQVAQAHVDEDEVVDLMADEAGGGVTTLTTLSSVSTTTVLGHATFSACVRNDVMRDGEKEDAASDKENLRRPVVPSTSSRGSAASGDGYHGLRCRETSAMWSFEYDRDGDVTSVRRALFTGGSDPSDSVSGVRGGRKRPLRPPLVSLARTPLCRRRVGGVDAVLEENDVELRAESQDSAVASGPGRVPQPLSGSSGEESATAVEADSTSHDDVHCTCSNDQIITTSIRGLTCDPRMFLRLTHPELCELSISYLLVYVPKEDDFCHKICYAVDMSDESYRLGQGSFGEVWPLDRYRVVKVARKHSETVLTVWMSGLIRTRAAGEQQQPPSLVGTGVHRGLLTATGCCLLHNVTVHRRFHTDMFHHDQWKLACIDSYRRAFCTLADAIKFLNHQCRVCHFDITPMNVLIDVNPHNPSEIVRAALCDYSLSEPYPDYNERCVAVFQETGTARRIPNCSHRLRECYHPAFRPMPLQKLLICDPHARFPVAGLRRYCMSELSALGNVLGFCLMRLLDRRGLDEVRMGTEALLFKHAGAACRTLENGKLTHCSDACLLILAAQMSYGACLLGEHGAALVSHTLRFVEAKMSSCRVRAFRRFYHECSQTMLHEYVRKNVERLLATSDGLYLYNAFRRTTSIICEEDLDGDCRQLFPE
Experiment: UL97 autophosphorylation protein kinase assay, A594T
Details: A594T mutant
pIC50: −log10 of the molar value.

molecule	pIC50
CC(C)Nc1nc2cc(Cl)c(Cl)cc2n1[C@H]1O[C@@H](CO)[C@H](O)[C@@H]1O	7.51

Attribution: paper PMC3050433
